Readings of IC50 for the listed compounds
Molecular target: c-Kit kinase (Homo sapiens, UniProt P10721)
Sequence (P10721 26-976): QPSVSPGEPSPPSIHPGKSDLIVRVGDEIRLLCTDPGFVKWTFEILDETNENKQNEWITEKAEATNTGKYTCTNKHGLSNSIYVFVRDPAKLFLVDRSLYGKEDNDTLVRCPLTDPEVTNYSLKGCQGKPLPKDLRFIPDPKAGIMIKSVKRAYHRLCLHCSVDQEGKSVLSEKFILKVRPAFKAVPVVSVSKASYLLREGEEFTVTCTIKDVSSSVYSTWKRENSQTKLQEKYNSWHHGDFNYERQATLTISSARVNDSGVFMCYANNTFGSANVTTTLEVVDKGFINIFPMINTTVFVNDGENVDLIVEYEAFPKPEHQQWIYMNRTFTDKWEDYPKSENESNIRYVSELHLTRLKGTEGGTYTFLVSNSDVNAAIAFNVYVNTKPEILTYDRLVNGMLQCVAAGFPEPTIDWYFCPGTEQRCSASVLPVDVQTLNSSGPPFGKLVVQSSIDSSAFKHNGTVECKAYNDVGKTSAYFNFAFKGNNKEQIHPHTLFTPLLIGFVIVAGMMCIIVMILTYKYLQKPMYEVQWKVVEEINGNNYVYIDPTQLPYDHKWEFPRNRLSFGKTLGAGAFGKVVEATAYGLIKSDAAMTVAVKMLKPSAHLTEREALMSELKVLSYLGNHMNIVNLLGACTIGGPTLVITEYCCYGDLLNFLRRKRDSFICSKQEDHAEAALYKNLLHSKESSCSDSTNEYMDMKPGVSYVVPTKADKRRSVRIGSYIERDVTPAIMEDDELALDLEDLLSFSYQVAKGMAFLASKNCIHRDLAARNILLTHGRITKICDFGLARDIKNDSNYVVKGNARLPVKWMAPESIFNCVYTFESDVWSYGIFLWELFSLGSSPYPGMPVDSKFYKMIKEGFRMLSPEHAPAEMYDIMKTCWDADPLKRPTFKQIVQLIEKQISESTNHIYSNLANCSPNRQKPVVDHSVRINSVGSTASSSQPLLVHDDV
Experiment: c-Kit AlphaScreen kinase assay;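 further: c-Kit kinase phosphorylating biotinylated poly(Glu,Tyr), ATP near its KM, 1 h reaction at ambient temperature, AlphaScreen chemiluminescence with streptavidin donor and anti-phosphotyrosine acceptor beads, 10-point inhibitor titration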
Type: biochemical
Details: Table 4, inhibition as IC50 class

In [3]: df
Out[3]:
                                   compound  endpoint_value
0  COc1cc2c(Oc3ccc(NC(=O)C(=O)NCCc4ccc(Cl)c(Cl)c4)cc3F)ccnc2cc1OCC1CCNCC1 [Example 223]         < 50 nM
1  COc1cc2c(Oc3ccc(NC(=O)C(=O)NCc4ccc(F)c(C(F)(F)F)c4)cc3F)ccnc2cc1OCC1CCNCC1 [Example 216]    50 to 500 nM
2  COc1cc2c(Oc3ccc(NC(=O)C(=O)N[C@H]4CCCc5ccccc54)cc3F)ccnc2cc1OCC1CCNCC1 [Example 219]         < 50 nM
3  CC[C@H](NC(=O)C(=O)Nc1ccc(Oc2ccnc3cc(OCC4CCNCC4)c(OC)cc23)c(F)c1)c1ccccc1 [Example 255]  500 to 5000 nM
4  COc1cc2c(Oc3ncc(NC(=O)CC(=O)Nc4ccc(F)cc4)cc3Cl)ccnc2cc1OCCCN1CCOCC1 [Example 266]    50 to 500 nM
5  COc1cc2c(Oc3ccc(NC(=O)C(=O)NCc4ccc(F)c(F)c4)cc3F)ccnc2cc1OCC1CCNCC1 [Example 256]         < 50 nM
6  COc1ccc(CCNC(=O)C(=O)Nc2ccc(Oc3ccnc4cc(OCC5CCNCC5)c(OC)cc34)c(F)c2)cc1 [Example 228]    50 to 500 nM
7  COc1cc2c(Oc3ccc(NC(=O)C(=O)NCc4ccccc4Cl)cc3F)ccnc2cc1OCC1CCNCC1 [Example 245]         < 50 nM

Turning to the following compound.
Item: COc1cc2c(Oc3ccc(NC(=O)C(=O)NCC(O)c4ccccc4)cc3F)ccnc2cc1OCC1CCNCC1 (stereo not drawn) [Example 251] Test system: c-Kit kinase (Homo sapiens, UniProt P10721) Read-out: IC50 Value: ?
50 to 500 nM

meta.source: patent US8476298B2
